system: T1, extracellular domain of human CD79b (human, UniProt P40259 29-159)
T1 construct: also called huCD79becd; huCD79b-ecd
T1 sequence: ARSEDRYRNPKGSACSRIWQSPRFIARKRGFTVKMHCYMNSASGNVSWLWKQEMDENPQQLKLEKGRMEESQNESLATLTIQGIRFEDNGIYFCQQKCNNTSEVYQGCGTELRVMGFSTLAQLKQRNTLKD
measurement_notes: phage selection, Fab on phage, plate-bound huCD79becd
readout_kind: binding result

{"binder": "huMA79b graft variant SEQ ID NO: 29 (Fab, name in Kabat numbering, V domains shown, Fab on phage; rest as huMA79b graft) VH: EVQLVESGGGLVQPGGSLRLSCAASGYTFSSYWIEWVRQAPGKGLEWVGEILPGGGDTNYNEIFKGRFTISADTSKNTAYLQMNSLRAEDTAVYYCTRRVPVYFDYWGQGTLVTVSS VL: DIQMTQSPSSLSASVGDRVTITCKASQSVDYDGDSFLNWYQQKPGKAPKLLIYAAGILARGVPSRFSGSGSGTDFTLTISSLQPEDFATYYCQQSNEDPLTFGQGTKVEIKR", "readout_kind": "binding result", "measurement": "binds"}
{"binder": "huMA79b graft variant SEQ ID NO: 32 (Fab, name in Kabat numbering, V domains shown, Fab on phage; rest as huMA79b graft) VH: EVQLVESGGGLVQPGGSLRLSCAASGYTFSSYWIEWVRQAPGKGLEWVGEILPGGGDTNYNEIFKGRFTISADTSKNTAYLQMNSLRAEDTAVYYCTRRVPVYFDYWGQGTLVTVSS VL: DIQMTQSPSSLSASVGDRVTITCKASQSVDYDGDSFLNWYQQKPGKAPKLLIYAARHLKRGVPSRFSGSGSGTDFTLTISSLQPEDFATYYCQQSNEDPLTFGQGTKVEIKR", "readout_kind": "binding result", "measurement": "binds"}
{"binder": "huMA79b graft variant H1-1 (Fab) (Fab, name in Kabat numbering, V domains shown, Fab on phage in the selection; purified Fab in FACS; rest as huMA79b graft; also called H1-1 mutation) VH: EVQLVESGGGLVQPGGSLRLSCAASGYPFNRYWINWVRQAPGKGLEWVGEILPGGGDTNYNEIFKGRFTISADTSKNTAYLQMNSLRAEDTAVYYCTRRVPVYFDYWGQGTLVTVSS VL: DIQMTQSPSSLSASVGDRVTITCKASQSVDYDGDSFLNWYQQKPGKAPKLLIYAASNLESGVPSRFSGSGSGTDFTLTISSLQPEDFATYYCQQSNEDPLTFGQGTKVEIKR", "readout_kind": "binding result", "measurement": "binds"}

Origin of values: patent USRE48558
